Could you please report measured Ca for the items listed next?
species: Rattus norvegicus; assay: Open TG-GATES - Regimen: Daily Repeat; format: toxicity, organism-based, Sprague-Dawley; set-up: regimen Daily Repeat, gender Male, age 6 weeks; settings: in vivo, po, 1000 mg/kg, […], tissue Plasma, route gavage, dose level High, time 7 day
Put down the number, then write its unit next to it.

Q: Reported Ca for CC(=O)[C@@]1(O)CC[C@H]2[C@@H]3C=C(Cl)C4=CC(=O)CC[C@]4(C)[C@H]3CC[C@@]21C [CHLORMADINONE] : what is it?
Ans: 10.8 mg/dL

Q: Fill blank: measured Ca of the compound O=C(O)c1ccccc1Nc1ccccc1 [FENAMIC ACID] is ____.
Ans: 11.5 mg/dL

Q: Return reported Ca; argument: CCCCNC(=O)NS(=O)(=O)c1ccc(C)cc1 [TOLBUTAMIDE]
Ans: 10.7 mg/dL

Q: Suppose we examine the compound CC(S)C(=O)NCC(=O)O (centres undefined) [TIOPRONIN] ; what Ca value has been reported?
Ans: 10.8 mg/dL

----------
I'd be grateful if you could share measured MCV for these entries.
species: Rattus norvegicus; assay: Open TG-GATES - Regimen: Daily Repeat; assay type: toxicity, organism-based, Sprague-Dawley; set-up: regimen Daily Repeat, gender Male, age 6 weeks; settings: in vivo, po, 0 mg/kg, 72 h, tissue Blood, route gavage, dose level Control, time 3 day
Give the number; fL is assumed, so skip it.

Q: // query MCV value for entry O=c1ccc2ccccc2o1
Ans: 65.9

Q: Can you look up the measured MCV of CN(CCOc1ccc(CC2SC(=O)NC2=O)cc1)c1ccccn1.O=C(O)/C=C\C(=O)O (stereo not drawn) [ROSIGLITAZONE MALEATE] for me?
Ans: 63.9

Q: // query MCV value for entry CN(C/C=C/C#CC(C)(C)C)Cc1cccc2ccccc12
Ans: 63.4

Q: So what's the measured MCV for this one? CCO
Ans: 63.8

Q: Entry CCN(CC)C(=S)SSC(=S)N(CC)CC : reported MCV = ?
Ans: 63.6

Q: # query: MCV of entry COc1ccc([C@@H]2Sc3ccccc3N(CCN(C)C)C(=O)[C@@H]2OC(C)=O)cc1
Ans: 67.4

Q: Item under review: CC(S)C(=O)NCC(=O)O (stereo not drawn) . Reported MCV?
Ans: 63

Q: What does the record list as MCV for Nc1ccc(Cc2ccc(N)cc2)cc1 ?
Ans: 62.1

Q: Need MCV, item CC(=O)[C@@]1(O)CC[C@H]2[C@@H]3C=C(Cl)C4=CC(=O)CC[C@]4(C)[C@H]3CC[C@@]21C
Ans: 62.4

Q: Requested read-out: MCV. Entry: CCCCC1C(=O)N(c2ccccc2)N(c2ccccc2)C1=O
Ans: 63.6

Q: Reported MCV for NS(=O)(=O)c1cc(C(=O)O)c(NCc2ccco2)cc1Cl [FUROSEMIDE] : what is it?
Ans: 64.1

Q: Entry under review: O=C(O)c1ccccc1Nc1ccccc1 . Reported MCV?
Ans: 62.7

Q: Need MCV of CCCCNC(=O)NS(=O)(=O)c1ccc(C)cc1 [TOLBUTAMIDE] , thanks.
Ans: 63

----------
Exercise: state measured KIDNEY_L for each of the compounds provided.
species on record: Rattus norvegicus; assay: Open TG-GATES - Regimen: Daily Repeat; assay type: toxicity, organism-based, Sprague-Dawley; set-up: regimen Daily Repeat, gender Male, age 6 weeks; conditions: in vivo, po, 0 mg/kg, […], tissue Kidney, route gavage, dose level Control, time 14 day
# number only, unit g dropped from output

Q: Look up KIDNEY_L for this compound: Nc1ccc(Cc2ccc(N)cc2)cc1
Ans: 1.3

Q: What value of KIDNEY_L has been reported for the following compound? CN(C/C=C/C#CC(C)(C)C)Cc1cccc2ccccc12
Ans: 1.2

Q: State the recorded KIDNEY_L for this entry: COc1ccc([C@@H]2Sc3ccccc3N(CCN(C)C)C(=O)[C@@H]2OC(C)=O)cc1
Ans: 1.3

Q: KIDNEY_L lookup needed for CCCCNC(=O)NS(=O)(=O)c1ccc(C)cc1 [TOLBUTAMIDE] , thanks.
Ans: 1.2

Q: Which KIDNEY_L value belongs to CC(S)C(=O)NCC(=O)O (stereo not given) ?
Ans: 1.2

Q: Would you mind telling me what KIDNEY_L value was observed for CC(=O)[C@@]1(O)CC[C@H]2[C@@H]3C=C(Cl)C4=CC(=O)CC[C@]4(C)[C@H]3CC[C@@]21C ?
Ans: 1.2

Q: I have this compound here, O=c1ccc2ccccc2o1 , and I need its recorded KIDNEY_L.
Ans: 1.2

Q: Look at this compound and give its reported KIDNEY_L. O=C(O)c1ccccc1Nc1ccccc1
Ans: 1.3

Q: For CCCCC1C(=O)N(c2ccccc2)N(c2ccccc2)C1=O , what is its reported KIDNEY_L?
Ans: 1.2

Q: KIDNEY_L lookup needed for CCO , thanks.
Ans: 1.2

----------
organism: Rattus norvegicus; experiment: Open TG-GATES - Regimen: Daily Repeat; format: toxicity, organism-based, Sprague-Dawley; design: regimen Daily Repeat, gender Male, age 6 weeks; conditions: in vivo, po, 1000 mg/kg, 72 h, tissue Blood, route gavage, dose level High, time 3 day
READOUT TYPE: APTT (s)
Answer format: numeric, s implied, no suffix.

Q: Tell me the measured APTT of CC(S)C(=O)NCC(=O)O (centres undefined) , please.
Ans: 23.7

Q: Field request: APTT | item: O=C(O)c1ccccc1Nc1ccccc1
Ans: 17

Q: Which APTT value belongs to CC(=O)[C@@]1(O)CC[C@H]2[C@@H]3C=C(Cl)C4=CC(=O)CC[C@]4(C)[C@H]3CC[C@@]21C ?
Ans: 28

Q: Name the reported APTT value associated with the compound CCCCNC(=O)NS(=O)(=O)c1ccc(C)cc1 [TOLBUTAMIDE]
Ans: 17.7

----------
organism: Rattus norvegicus; assay: Open TG-GATES - Regimen: Daily Repeat; assay type: toxicity, organism-based, Sprague-Dawley; set-up: regimen Daily Repeat, gender Male, age 6 weeks; conditions: in vivo, po, 300 mg/kg, 72 h, tissue Plasma, route gavage, dose level Middle, time 3 day
READOUT TYPE: TC (mg/dL)
Express your answer in mg/dL, writing the number without its unit.

Q: What TC value was documented for this molecule, CCCCNC(=O)NS(=O)(=O)c1ccc(C)cc1 [TOLBUTAMIDE] ?
Ans: 79.2

Q: Recorded TC for CC(=O)[C@@]1(O)CC[C@H]2[C@@H]3C=C(Cl)C4=CC(=O)CC[C@]4(C)[C@H]3CC[C@@]21C [CHLORMADINONE] , please?
Ans: 77

Q: TC lookup needed for CC(S)C(=O)NCC(=O)O (centres undefined) [TIOPRONIN] , thanks.
Ans: 73.4

Q: Recorded TC for O=C(O)c1ccccc1Nc1ccccc1 [FENAMIC ACID] , please?
Ans: 82.4

----------
organism: Rattus norvegicus; assay: Open TG-GATES - Regimen: Daily Repeat; assay type: toxicity, organism-based, Sprague-Dawley; parameters: regimen Daily Repeat, gender Male, age 6 weeks; settings: in vivo, po, 300 mg/kg, […], tissue Blood, route gavage, dose level Middle, time 7 day
READOUT TYPE: PT (s)
Form entry: value (s) — number only.

Q: Given the entry CC(S)C(=O)NCC(=O)O (centres undefined) , report its measured PT.
Ans: 15.3

Q: Name the reported PT value associated with the compound CC(=O)[C@@]1(O)CC[C@H]2[C@@H]3C=C(Cl)C4=CC(=O)CC[C@]4(C)[C@H]3CC[C@@]21C
Ans: 14.8

Q: Fill in the blank: the reported PT of CCCCNC(=O)NS(=O)(=O)c1ccc(C)cc1 [TOLBUTAMIDE] is ____.
Ans: 12.7

Q: If you can, please state the reported PT value of O=C(O)c1ccccc1Nc1ccccc1 .
Ans: 13.9

----------
species on record: Rattus norvegicus; experiment: Open TG-GATES - Regimen: Daily Repeat; format: toxicity, organism-based, Sprague-Dawley; parameters: regimen Daily Repeat, gender Male, age 6 weeks; settings: in vivo, po, 1000 mg/kg, […], tissue Blood, route gavage, dose level High, time 7 day
READOUT TYPE: Ret (%)
Write the number in % without appending the unit.

Q: If you can, please state the reported Ret value of O=C(O)c1ccccc1Nc1ccccc1 [FENAMIC ACID] .
Ans: 7.7

Q: # get_value(readout='Ret', item= CC(S)C(=O)NCC(=O)O (centres undefined) [TIOPRONIN] )
Ans: 6.8

Q: I would be grateful if you could share the reported Ret for CCCCNC(=O)NS(=O)(=O)c1ccc(C)cc1 [TOLBUTAMIDE] .
Ans: 5.3

Q: I'd like to know its Ret. The compound in question is CC(=O)[C@@]1(O)CC[C@H]2[C@@H]3C=C(Cl)C4=CC(=O)CC[C@]4(C)[C@H]3CC[C@@]21C [CHLORMADINONE]
Ans: 3.8
